Measured pEC50, listed per entry.
tested_target: T1, Fusion protein of extracellular domain of human TIGIT and mouse IgG2a Fc fragment (human TIGIT ECD-mFc) (human)
T1 construct: The entry includes the signal peptide (limits not recoverable) and the mouse IgG2a Fc
T1 chain: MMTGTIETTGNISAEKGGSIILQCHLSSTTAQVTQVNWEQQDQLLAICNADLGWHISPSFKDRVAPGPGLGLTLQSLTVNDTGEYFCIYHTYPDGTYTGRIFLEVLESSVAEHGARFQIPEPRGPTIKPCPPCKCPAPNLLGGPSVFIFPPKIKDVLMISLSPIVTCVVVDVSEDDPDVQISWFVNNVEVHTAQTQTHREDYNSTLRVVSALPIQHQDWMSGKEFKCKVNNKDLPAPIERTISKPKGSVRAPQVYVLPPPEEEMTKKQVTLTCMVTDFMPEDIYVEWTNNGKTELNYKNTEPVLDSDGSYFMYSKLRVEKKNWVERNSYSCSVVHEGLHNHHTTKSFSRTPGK
experiment_description: ELISA, human TIGIT ECD-mFc
pEC50: −log10 of the molar value.
quantity: pEC50

binder	measured_result
TIGIT-006-H2L1 (antibody, V domains shown, Humanized anti-TIGIT antibody) VH: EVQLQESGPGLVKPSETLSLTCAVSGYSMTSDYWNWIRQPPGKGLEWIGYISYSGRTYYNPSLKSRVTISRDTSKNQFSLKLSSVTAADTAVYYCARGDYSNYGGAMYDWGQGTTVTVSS VL: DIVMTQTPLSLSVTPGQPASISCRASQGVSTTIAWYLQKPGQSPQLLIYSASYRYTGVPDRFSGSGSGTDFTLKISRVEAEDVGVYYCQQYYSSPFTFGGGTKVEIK	10.97
TIGIT-002-H3L1 (antibody, V domains shown, Humanized anti-TIGIT antibody) VH: EVQLQESGPGLVKPSETLSLTCAVSGYSITSDSWNWIRQPPGKKLEWMGYISYSGNTYYNPSLKSRITISRDTSKNQFSLKLSSVTAADTAVYYCARLDFSNYGGAVDYWGQGTTVTVSS VL: DIVMTQTPLSLSVTPGQPASISCKASQNVRTAVAWYLQKPGQSPQLMIYSASYRYTGVPDRFSGSGSGTDFTLKISRVEAEDVGVYYCQQYYTTPWTFGGGTKVEIK	10.92
TIGIT-005-H2L1c (antibody, V domains shown, Humanized anti-TIGIT antibody with NG-site mutation in VL) VH: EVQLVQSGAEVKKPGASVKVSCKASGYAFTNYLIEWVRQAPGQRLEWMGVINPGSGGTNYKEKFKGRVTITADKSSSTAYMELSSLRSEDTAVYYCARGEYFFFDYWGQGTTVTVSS VL: DIVMTQSPDSLAVSLGERATINCKASQHVSDGVAWYQHKPGQSPKLLIYSASYRYTGVPDRFSGSGSGTDFTLTISSLQAEDVAVYYCQQHYNTPHTFGGGTKVEIK	10.57

Source: patent US20240343803A1
